- Tested Target: Human PDE4A (Homo sapiens (Human))
- Sequence (P27815 other isoform, or with tags, fused parts or gaps): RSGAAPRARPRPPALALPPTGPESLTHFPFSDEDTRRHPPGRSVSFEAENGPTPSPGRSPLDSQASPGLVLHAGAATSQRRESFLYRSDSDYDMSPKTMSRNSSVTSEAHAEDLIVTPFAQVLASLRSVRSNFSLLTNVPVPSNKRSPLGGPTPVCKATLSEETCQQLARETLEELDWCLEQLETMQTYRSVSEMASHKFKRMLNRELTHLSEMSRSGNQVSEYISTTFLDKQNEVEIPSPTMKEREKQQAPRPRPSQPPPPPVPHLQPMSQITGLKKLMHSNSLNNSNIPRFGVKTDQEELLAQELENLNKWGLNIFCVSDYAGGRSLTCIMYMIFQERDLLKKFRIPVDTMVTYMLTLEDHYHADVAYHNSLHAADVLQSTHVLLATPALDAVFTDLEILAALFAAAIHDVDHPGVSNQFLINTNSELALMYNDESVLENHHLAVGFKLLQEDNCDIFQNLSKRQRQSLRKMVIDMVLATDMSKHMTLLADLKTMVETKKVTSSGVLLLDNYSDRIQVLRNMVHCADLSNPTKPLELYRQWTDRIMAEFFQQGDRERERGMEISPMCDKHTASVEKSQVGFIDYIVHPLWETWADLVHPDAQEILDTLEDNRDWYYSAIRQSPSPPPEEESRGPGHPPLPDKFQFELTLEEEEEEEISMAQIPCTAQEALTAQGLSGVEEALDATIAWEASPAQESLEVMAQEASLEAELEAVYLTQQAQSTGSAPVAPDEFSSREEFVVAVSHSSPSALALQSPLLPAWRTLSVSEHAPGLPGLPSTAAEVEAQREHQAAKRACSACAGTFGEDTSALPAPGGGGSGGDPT
- Experiment: PDE4A Scintillation Proximity Assay (SPA), inhibition of enzyme activity
- Type: biochemical
- Condition Notes: human recombinant enzyme, 1 μM cAMP substrate, 30 min at 25° C., geometric mean of 2-9 determinations unless otherwise indicated, read-out: Human PDE4A FL
Quantity Kind: IC50 (nM)
Give the quantity in nM, number only.

N#Cc1ccc(-c2c(C(=O)NC3CC3)nc3cccnn23)c(F)c1 [Example 79]: 48.8
O=C(c1nc2cccnn2c1-c1ccnc(OC(F)F)c1)N1CCC1 [Example 76]: 7.09
CCNC(=O)c1nc2cccnn2c1-c1ccc(Cl)cc1 [Example 85]: 25.6

-- ask Sample O=C(c1nc2cccnn2c1-c1ccc(Cl)c(F)c1)N1CCC1 [Example 13] — what was its IC50?
-- reply 5.13

-- ask # iterate: O=C(NC12CC(C1)C2)c1nc2cccnn2c1-c1ccc(Cl)cc1 [Example 37]
-- reply 127

-- ask # iterate: O=C(NC1CC1)c1nc2cccnn2c1-c1ccc2ncnn2c1 [Example 6]
-- reply 64.4

-- ask # iterate: N#Cc1ccc(-c2c(C(=O)NC3CC3)nc3cccnn23)cc1F [Example 90]
-- reply 21.4

-- ask # iterate: O=C(c1nc2cccnn2c1-c1cc(F)c(Cl)c(F)c1)N1CCC1 [Example 47]
-- reply 7.37

-- ask # iterate: N#Cc1ccc(-c2c(C(=O)N3CCC3)nc3cccnn23)cc1F [Example 23]
-- reply 15.1

-- ask # iterate: CCCNC(=O)c1nc2cccnn2c1-c1cncc(Cl)c1 [Example 48]
-- reply 768

* * *

compounds and their reported IC50
- Tested Target: UniProtKB Q08493
- Experiment: PDE4C Scintillation Proximity Assay (SPA), inhibition of enzyme activity
- Assay type: biochemical
- Condition Notes: read-out: Human PDE4C FL
Give the quantity in nM, number only.

O=C(NC1CC1)c1nc2cccnn2c1-c1ccc(Cl)cc1 [Example 2]: 27.9
O=C(c1nc2cccnn2c1-c1ccc(Cl)cc1)N1CCC1 [Example 1]: 130
Cn1cc(NC(=O)c2nc3cccnn3c2-c2ccc(Cl)c(F)c2)cn1 [Example 7]: 2.35

Now turn to the next compound.
-- ask Sample COc1c(F)cc(-c2c(C(=O)N3CCC3)nc3cccnn23)cc1F [Example 3] — what was its IC50?
-- reply 51.9

* * *

- Tested Target: Human PDE4C (Homo sapiens (Human), UniProt Q08493)
- Sequence (Q08493 2-712): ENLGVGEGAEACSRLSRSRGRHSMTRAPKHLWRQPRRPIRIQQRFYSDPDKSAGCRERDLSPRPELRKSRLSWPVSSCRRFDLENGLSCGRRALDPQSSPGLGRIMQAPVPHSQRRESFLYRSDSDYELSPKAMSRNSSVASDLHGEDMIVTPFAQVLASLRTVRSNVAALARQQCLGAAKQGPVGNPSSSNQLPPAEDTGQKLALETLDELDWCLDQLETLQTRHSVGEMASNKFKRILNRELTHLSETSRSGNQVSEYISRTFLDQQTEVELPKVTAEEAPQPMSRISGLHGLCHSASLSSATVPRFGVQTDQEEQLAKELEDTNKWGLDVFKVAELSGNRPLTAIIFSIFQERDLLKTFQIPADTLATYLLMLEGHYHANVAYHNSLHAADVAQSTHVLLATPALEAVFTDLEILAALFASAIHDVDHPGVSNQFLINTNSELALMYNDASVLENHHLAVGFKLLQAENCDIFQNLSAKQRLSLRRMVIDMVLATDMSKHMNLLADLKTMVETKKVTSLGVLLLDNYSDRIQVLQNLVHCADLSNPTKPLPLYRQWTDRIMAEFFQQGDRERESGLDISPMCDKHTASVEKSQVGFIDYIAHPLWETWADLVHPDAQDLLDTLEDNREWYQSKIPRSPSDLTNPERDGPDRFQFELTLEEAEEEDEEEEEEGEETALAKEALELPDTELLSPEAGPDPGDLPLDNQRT
- Experiment: PDE4C Scintillation Proximity Assay (SPA), inhibition of enzyme activity
- Type: biochemical
- Condition Notes: human recombinant enzyme, 1 μM cAMP substrate, 30 min at 25° C., geometric mean of 2-9 determinations unless otherwise indicated, read-out: Human PDE4C FL
pIC50: −log10 of the molar value.
Class Fulfilled: pIC50 at least 7. Class Not fulfilled: pIC50 below 7.

Reference set, count: 5
O=C(c1nc2cccnn2c1-c1ccc2ncoc2c1)N1CCC1: Not fulfilled
O=C(NC1CC1)c1nc2cccnn2c1-c1cc(F)cc(Cl)c1: Fulfilled
CCCNC(=O)c1nc2cccnn2c1-c1cncc(Cl)c1: Not fulfilled
O=C(N[C@@H]1C[C@@H]1F)c1nc2cccnn2c1-c1ccc(Cl)cc1: Fulfilled
O=C(Nc1ncccn1)c1nc2cccnn2c1-c1ccc(Cl)cc1: Not fulfilled

# ---- query compound ----
-- ask Identify whether the reported pIC50 of the following compound is 7 or greater: "O=C(N[C@@H]1C[C@@H]1F)c1nc2cccnn2c1-c1ccc(Cl)cc1F"
-- reply Fulfilled
